Exercise: for every item that follows, state its recorded IC50.
tested on: NCI-N87; assay: In vitro analysis of benzodiazepine dimer derivatives, MTT cell viability; assay type: cell-based; settings: Homo sapiens, NCI-N87, 144 h; MTT assay, 6 days incubation
Answers are plain numbers, in pM.

Provide IC50 values for the following items, in order.
1. COc1cc2c(cc1OCc1cc(O)cc(COc3cc4c(cc3OC)C(=O)N3Cc5ccccc5C[C@H]3C=N4)c1)N=C[C@@H]1Cc3ccccc3CN1C2=O
2. COc1cc2c(cc1OCc1cc(COc3cc4c(cc3OC)C(=O)N3c5ccccc5C[C@H]3C=N4)cc(CN(C)C)c1)N=C[C@@H]1Cc3ccccc3N1C2=O
3. COc1cc2c(cc1OCc1cc(O)cc(COc3cc4c(cc3OC)C(=O)N3C=C(c5ccccc5)C[C@H]3C=N4)c1)N=C[C@@H]1CC(c3ccccc3)=CN1C2=O
4. COc1cc2c(cc1OCCN(C)CCOc1cc3c(cc1OC)C(=O)N1Cc4ccccc4C[C@H]1C=N3)N=C[C@@H]1Cc3ccccc3CN1C2=O
5. COc1cc2c(cc1OCCN(CCOc1cc3c(cc1OC)C(=O)N1Cc4ccccc4C[C@H]1C=N3)c1ccncc1)N=C[C@@H]1Cc3ccccc3CN1C2=O

*A*
[32.2, 62, 173, 184, 4110]

The reported measurements were obtained from patent US11807628B2.
